target: integrin αvβ6 on BxPC-3 cells (Homo sapiens, UniProt P06756+P18564); construct: Experiments were performed on high integrin αvβ6-expressing BxPC-3 cells; host or cells: BxPC-3 human pancreatic cancer cells; assay: Displacement cell-binding assay with ^125I–HYK as radioligand; conditions: displacement cell-binding assay, BxPC-3 cells, nonlinear regression fit; read-out: IC50, inhibition of ^125I–HYK binding to integrin αvβ6 on BxPC-3 cells
Sequence (P06756 31-889 limits assumed): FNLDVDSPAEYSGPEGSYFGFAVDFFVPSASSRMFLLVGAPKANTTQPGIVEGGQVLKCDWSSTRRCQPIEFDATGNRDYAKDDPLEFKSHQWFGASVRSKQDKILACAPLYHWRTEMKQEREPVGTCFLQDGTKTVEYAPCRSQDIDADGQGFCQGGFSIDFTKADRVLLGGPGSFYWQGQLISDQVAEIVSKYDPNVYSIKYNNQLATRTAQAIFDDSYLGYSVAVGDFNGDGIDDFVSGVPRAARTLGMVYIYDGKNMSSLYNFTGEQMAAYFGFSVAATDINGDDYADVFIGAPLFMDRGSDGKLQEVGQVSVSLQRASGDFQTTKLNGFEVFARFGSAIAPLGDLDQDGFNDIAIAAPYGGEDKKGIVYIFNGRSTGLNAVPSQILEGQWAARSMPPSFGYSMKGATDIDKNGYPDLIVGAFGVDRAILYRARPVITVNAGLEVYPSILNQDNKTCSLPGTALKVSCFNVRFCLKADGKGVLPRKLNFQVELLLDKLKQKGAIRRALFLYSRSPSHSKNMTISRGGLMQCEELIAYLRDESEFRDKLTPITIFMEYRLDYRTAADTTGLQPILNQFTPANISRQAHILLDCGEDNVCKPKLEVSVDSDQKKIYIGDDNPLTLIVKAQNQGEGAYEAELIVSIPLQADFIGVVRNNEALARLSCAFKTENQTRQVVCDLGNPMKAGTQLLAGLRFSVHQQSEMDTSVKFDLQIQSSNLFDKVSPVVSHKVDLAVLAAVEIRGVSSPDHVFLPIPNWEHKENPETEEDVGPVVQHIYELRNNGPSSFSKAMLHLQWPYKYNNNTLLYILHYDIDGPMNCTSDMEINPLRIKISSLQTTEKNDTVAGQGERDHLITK
Sequence (P06756 891-1048 partner limits assumed): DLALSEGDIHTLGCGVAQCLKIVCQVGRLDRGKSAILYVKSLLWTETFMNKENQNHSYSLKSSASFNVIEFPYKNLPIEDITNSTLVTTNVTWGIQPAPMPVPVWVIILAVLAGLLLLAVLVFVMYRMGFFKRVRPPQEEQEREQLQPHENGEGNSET
Sequence (P18564 22-788): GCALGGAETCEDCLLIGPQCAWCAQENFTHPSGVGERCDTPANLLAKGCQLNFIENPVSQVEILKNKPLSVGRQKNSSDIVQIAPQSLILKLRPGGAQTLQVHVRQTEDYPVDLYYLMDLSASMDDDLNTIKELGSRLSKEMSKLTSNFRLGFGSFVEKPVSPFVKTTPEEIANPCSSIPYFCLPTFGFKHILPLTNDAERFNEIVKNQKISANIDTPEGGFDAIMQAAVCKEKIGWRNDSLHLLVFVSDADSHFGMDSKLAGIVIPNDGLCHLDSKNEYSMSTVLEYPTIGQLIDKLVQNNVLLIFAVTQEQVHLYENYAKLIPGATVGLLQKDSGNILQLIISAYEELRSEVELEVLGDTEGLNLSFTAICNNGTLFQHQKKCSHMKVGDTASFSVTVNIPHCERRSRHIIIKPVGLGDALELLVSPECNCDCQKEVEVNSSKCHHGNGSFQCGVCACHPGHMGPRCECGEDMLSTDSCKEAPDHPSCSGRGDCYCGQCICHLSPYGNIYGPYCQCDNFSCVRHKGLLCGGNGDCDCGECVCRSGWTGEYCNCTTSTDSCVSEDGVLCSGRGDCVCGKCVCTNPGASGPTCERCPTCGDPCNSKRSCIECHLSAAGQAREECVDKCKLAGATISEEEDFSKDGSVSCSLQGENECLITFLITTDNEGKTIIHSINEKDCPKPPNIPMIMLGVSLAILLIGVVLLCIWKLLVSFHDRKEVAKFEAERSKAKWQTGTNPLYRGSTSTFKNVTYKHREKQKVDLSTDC
Where no end group is shown, it is not given here.
OUTCOME_MEASURE: pIC50
Scale: pIC50 equals -log10([C]), with [C] in mol/L.

Ask | Given RGDLATLRQLAQEDGVVGVRK [HK, reference compound] , state its recorded pIC50.
Reply | 8.45
